- Test system: HOP-92 NSCLC
- experimentalDetails: NCI-60 one-dose screen, 48 h
- conditionLabel: 10 µM unless noted
The panel holds about 83,000 compounds, 20% with a hit somewhere; the sample as a whole holds those more often. The source made the active and inactive calls. The calls were made as follows: active = growth percent below 10; inactive = the rest.
Outcomes: 1 = active, -1 = inactive

molecule	tgt	discreteLabel
COc1cnc2c(c1)C(=O)c1c-2n(CCCNC2=NCCS2)c(=O)c2cc([N+](=O)[O-])ccc12	HOP-92 NSCLC	-1
CN1CCN(c2nc(-c3csc(-c4cccs4)n3)cc3ccccc23)CC1	HOP-92 NSCLC	-1
N#CCCCCCn1c2ccccc2c2c3c(c4c5ccccc5n(CCCCCC#N)c4c21)C(=O)N(O)C3=O	HOP-92 NSCLC	-1
COc1c(N)c2c(c([N+](=O)[O-])c1OC)C(=O)OC2	HOP-92 NSCLC	-1
Cc1ccc(-c2ccc(Nc3ccccc3)nn2)cc1S(N)(=O)=O	HOP-92 NSCLC	-1
c1ccc(CN2C(c3ccccc3)=Nc3ccccc3C2c2c[nH]c3ccccc23)cc1 (stereo unspecified)	HOP-92 NSCLC	1
Cc1cc2nc3c4cc(Cl)ccc4n(CCN(C)C)c3nc2cc1C	HOP-92 NSCLC	-1
CCC(c1ccc(OC)cc1)C(CC)c1ccc(O)c(CN2CCCCC2)c1 (stereo unspecified)	HOP-92 NSCLC	-1
N#CC1C(=N)Cc2ccccc2-c2ccccc21 (stereo unspecified)	HOP-92 NSCLC	-1
Cc1ccccc1-c1nc(C(Cl)Cl)nc2cc(-c3ccccc3)nn12	HOP-92 NSCLC	-1
COC(c1ccccc1)(c1ccccc1)c1ccccc1	HOP-92 NSCLC	-1
Cc1ccc(C)c2c1CCC2C(C)C (stereo unspecified)	HOP-92 NSCLC	-1
Cc1ccc(Cc2cnc(NC(=O)/C=C/c3cccc(C)c3)s2)cc1	HOP-92 NSCLC	-1
NC(=O)[C@@H]1CC2CCC1C2 (stereo partly specified)	HOP-92 NSCLC	-1
O=C(Nc1ccc(/C=C2\SC(=O)N(Cc3ccc(OC(F)(F)F)cc3)C2=O)cc1)c1ccc(Cl)c([N+](=O)[O-])c1	HOP-92 NSCLC	-1
CCCCC[C@H]1C/C=C2/C(=O)C(Cl)=C[C@@H]2C/C=C\CCCC(=O)O[C@@H](CCCCC)C/C=C2/C(=O)C(Cl)=C[C@@H]2C/C=C\CCCC(=O)O1	HOP-92 NSCLC	1
NS(=O)(=O)c1ccc(CCNC(=O)/C=C/c2ccc(Cl)cc2)cc1	HOP-92 NSCLC	-1
Cc1nn(-c2ccc(Cl)cc2)c(=O)n1CCn1cnc2ccccc21	HOP-92 NSCLC	-1
Nc1nc(N)c2nc3c(nc2n1)CCCCCCCCCC3	HOP-92 NSCLC	-1
COc1ccc(NC(=S)N/N=C/c2ccccc2SSCCC(=O)OC[C@H]2O[C@H](O)[C@H](O)[C@@H](O)[C@@H]2O)cc1	HOP-92 NSCLC	-1
COc1ccc(-c2nc3ncccn3c2-c2nc3ccc(Br)cc3[nH]2)cc1	HOP-92 NSCLC	-1
COc1cc(OC)c2c(c1)c1nc3cc(C)c(C)cc3nc1n2CCN(C)C	HOP-92 NSCLC	-1
N=C(N)c1ccc(S(N)(=O)=O)cc1	HOP-92 NSCLC	-1
O=C1CNCCN1	HOP-92 NSCLC	-1
Cc1cc(Cl)nc(N(CCNc2ccnc3cc(Cl)ccc23)Cc2ccco2)n1	HOP-92 NSCLC	-1
O=c1c(CNc2ccc(S(=O)(=O)Nc3nccs3)cc2)coc2ccccc12	HOP-92 NSCLC	-1
COc1cccc(-c2nn(-c3ccccc3)cc2-c2ccnc(NCCCN)c2)c1	HOP-92 NSCLC	-1
Cn1cc(-c2csc(-c3c[nH]c4ccccc34)n2)c2cccnc21	HOP-92 NSCLC	-1
COc1ccc(-c2n/c(=C\c3c(O)[nH]c4ccc(OC)cc34)cc3c2=Nc2ccccc2-3)cc1	HOP-92 NSCLC	-1
C/C(=N/NC(N)=S)C(=O)O	HOP-92 NSCLC	-1
COc1ccc2nc(-c3cc(-c4cc(OC)c(OC)c(OC)c4)n[nH]3)[nH]c2c1	HOP-92 NSCLC	-1
N#C/C(=C\c1ccc(-c2ccc(Br)cc2)o1)c1nc(-c2cccs2)cs1	HOP-92 NSCLC	-1
COc1ccc(-c2nc(Nc3ccc(-c4nc5ccccc5[nH]4)cc3)nc(N3CCOCC3)n2)cc1	HOP-92 NSCLC	1
CC(C)(C)n1cc(-c2ccnc(NCCCNS(=O)(=O)c3ccc(Cl)cc3)c2)c(-c2cccc(F)c2)n1	HOP-92 NSCLC	-1
Cc1nn(-c2ccc(Br)cc2)c2nc3[nH]c(=O)[nH]c(=O)c3nc12	HOP-92 NSCLC	-1
C=C(C)[C@@H]1CC[C@]2(CN)CC[C@]3(C)[C@H](CC[C@@H]4[C@@](C)(CCCN)[C@H](C(=C)C)CC[C@]43C)[C@@H]12	HOP-92 NSCLC	-1
Cc1cc(Cl)c2c(N(C)C)cccc2n1	HOP-92 NSCLC	-1
Brc1ccc(Cn2nnnc2-c2ccn(-c3ccccc3)n2)cc1	HOP-92 NSCLC	-1
CCCCC[C@H]1CC=C2C(=O)C(Cl)=C[C@@H]2CC=CCCCC(=O)O[C@@H](CCCCC)CC=C2C(=O)C(Cl)=C[C@@H]2CC=CCCCC(=O)O[C@@H](CCCCC)CC=C2C(=O)C(Cl)=C[C@@H]2CC=CCCCC(=O)O1	HOP-92 NSCLC	-1
O=C(O)c1cccc2c1Cc1cc([N+](=O)[O-])ccc1-2	HOP-92 NSCLC	-1
CCCNc1nc(N(C)O)nc(N(C)O)n1	HOP-92 NSCLC	-1
